TGT: T1, Cynomolgus CD3εδ Fc heterodimer (Cy CD3ε Fc / CD3δ Fc-HIS) (cynomolgus, UniProt Q95LI8 22-100)
T1 chain 1: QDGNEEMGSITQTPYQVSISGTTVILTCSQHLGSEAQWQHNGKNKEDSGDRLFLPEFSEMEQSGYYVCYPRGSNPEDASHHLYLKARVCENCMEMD
T1 chain 2: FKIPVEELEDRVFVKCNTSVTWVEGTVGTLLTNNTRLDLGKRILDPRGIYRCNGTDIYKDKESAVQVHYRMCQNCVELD
MEASUREMENT_DESCRIPTION: BLI (Octet), IgG on AHC sensor, pH 6.0
OUTCOME_MEASURE: koff (s⁻¹)
Answers are plain numbers, in s⁻¹.

BINDER	RECORDED_NUMBER
SAD10319_P05_G04 (ADI-57416) (antibody, V domains shown, IgG; also called Ab144) VH: QVQLVQSGAEVKKPGASVKVSCKASGYTFTSYGMHWVRQAPGQRLEWMGWIDPVTGATDYSQKFQGRVTITRDTSASTAYMELSSLRSEDTAVYYCARDAHGRYFYDHWGQGTLVTVSS VL: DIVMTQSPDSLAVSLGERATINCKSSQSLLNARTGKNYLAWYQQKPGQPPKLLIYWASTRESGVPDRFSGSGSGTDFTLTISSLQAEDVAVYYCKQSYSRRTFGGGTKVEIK	0.00389

Now look at this entry.
Quick one: koff for SAD10318_P04_E10 (ADI-57288) (antibody, V domains shown, IgG; also called Ab212) VH: QVQLVQSGAEVKKPGASVKVSCKASGFNIKDYYMHWVRQAPGQRLEWMGWIDLENANTIYDAKFQGRVTITRDTSASTAYMELSSLRSEDTAVYYCARDAYGRYHYDHWGQGTLVTVSS VL: DIVMTQSPDSLAVSLGERATINCKSSQSLLNARTGHNYLAWYQQKPGQPPKLLISGSTRESGVPDRFSGSGSGTDFTLTISSLQAEDVAVYYCHQSYHRRTFGGGTKVEIK ? 0.00245
